Cited source: patent US20140329742A1

# Measured Target: T1, human Neuropeptide Y receptor type 2 (human, UniProt P49146 1-381)
# T1 sequence (looked up): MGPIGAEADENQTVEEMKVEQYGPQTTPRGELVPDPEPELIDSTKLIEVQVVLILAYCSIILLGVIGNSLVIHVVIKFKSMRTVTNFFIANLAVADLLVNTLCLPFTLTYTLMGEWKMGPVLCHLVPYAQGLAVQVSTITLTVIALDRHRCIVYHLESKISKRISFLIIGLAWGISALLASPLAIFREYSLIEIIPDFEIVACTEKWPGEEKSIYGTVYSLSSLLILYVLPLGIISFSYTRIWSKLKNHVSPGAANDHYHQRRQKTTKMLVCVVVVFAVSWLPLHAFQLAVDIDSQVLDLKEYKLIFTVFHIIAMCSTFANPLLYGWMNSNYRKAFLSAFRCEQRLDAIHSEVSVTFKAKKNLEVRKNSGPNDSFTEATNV
# Method: cell-based or functional assay
Where no end group is shown, it is not given here.
Readout Type: hNPY Y2 pEC50 (melanophore assay)

Give its hNPY Y2 pEC50 (melanophore assay) value. Item: IKPEAPLSKQLEEEAVRYYASLRHYLNLVTRQRY-NH2 [Peptide 2]
8.6

And PKPEAPGCDASPEEWNRYYASLRKYLNWVTRQNY-NH2 [Peptide 1] ?
7.9

And PKPVAPGCDASPAELNRQYSDLRNYWNLVTRQRY-NH2 [Peptide 15] ?
8.9
